protocol_description: Kinetic assay: biolayer interferometry binding to biotin-labeled PIP2
condition_label: 24° C., read-out: dissociation constant
Where no end group is shown, it is not given here.
metric: Kd (µM)

* KKKKKRFSFKKSFKLSGFSFKKNKK [MPS peptide] | 0.0176

----------
Test system: IPF fibroblast cells
protocol_description: cells
Format: cell-based, human
condition_label: Homo sapiens; IPF fibroblast cells, 72 hours; read-out: IC50 inhibiting IPF fibroblast proliferation
pIC50: −log10 of the molar value.
metric: pIC50

* COC(=O)c1ccc2c(c1)NC(=O)/C2=C(\Nc1ccc(N(C)C(=O)CN2CCN(C)CC2)cc1)c1ccccc1 [nintedanib, reference compound] | 4.80 to 4.86
